target: UniProt:P56726; assay: Antagonist activity at Smo receptor in mouse NIH/3T3 cells harboring GRE-Luc assessed as inhibition of SAG-induced Hh signaling pathway preincubated for 1 to 2 hrs followed by SAG addition and measured after 24 hrs by Bright-Glo luciferase reporter gene assay
Sequence (P56726 whole entry): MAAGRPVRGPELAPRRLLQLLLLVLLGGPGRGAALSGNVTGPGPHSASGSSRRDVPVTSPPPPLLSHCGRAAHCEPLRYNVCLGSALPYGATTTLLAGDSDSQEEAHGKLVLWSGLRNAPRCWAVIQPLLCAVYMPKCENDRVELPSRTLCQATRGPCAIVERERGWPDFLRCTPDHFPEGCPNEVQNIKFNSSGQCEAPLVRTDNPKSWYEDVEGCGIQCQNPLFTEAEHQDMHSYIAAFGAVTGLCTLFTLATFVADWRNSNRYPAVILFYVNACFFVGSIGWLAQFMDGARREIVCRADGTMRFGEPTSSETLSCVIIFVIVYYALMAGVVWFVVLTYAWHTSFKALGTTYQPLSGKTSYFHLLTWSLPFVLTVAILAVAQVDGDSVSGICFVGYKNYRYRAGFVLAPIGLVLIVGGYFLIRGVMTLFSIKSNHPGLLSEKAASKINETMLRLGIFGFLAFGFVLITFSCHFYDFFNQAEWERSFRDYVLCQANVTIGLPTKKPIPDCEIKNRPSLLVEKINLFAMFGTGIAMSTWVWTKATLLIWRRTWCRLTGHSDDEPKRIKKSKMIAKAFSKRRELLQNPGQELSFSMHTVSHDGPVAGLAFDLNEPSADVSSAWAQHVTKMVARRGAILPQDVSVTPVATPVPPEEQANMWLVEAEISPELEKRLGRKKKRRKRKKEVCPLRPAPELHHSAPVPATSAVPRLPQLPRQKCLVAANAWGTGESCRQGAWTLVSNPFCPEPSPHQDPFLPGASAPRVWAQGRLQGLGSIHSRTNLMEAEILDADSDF
pIC50: −log10 of the molar value.
Listing of recorded pIC50 by entry.

- structure.as.smiles: "CN(C(=O)c1ccc(C(N)=O)cc1)C1CCN(c2nnc(-c3ccnn3C)c3ccccc23)CC1"
  qualifying.sign: "="
  pIC50: 5.52
- structure.as.smiles: "CN(C(=O)c1ccc(C(=O)O)cc1)C1CCN(c2nnc(-c3ccnn3C)c3ccccc23)CC1"
  qualifying.sign: "<"
  pIC50: 5.00
- structure.as.smiles: "CN(C(=O)c1ccc(NCC(=O)O)cc1)C1CCN(c2nnc(-c3ccnn3C)c3ccccc23)CC1"
  qualifying.sign: "<"
  pIC50: 5.00
- structure.as.smiles: "CN(C(=O)c1ccc(B(O)O)cc1)C1CCN(c2nnc(-c3ccnn3C)c3ccccc23)CC1"
  qualifying.sign: "="
  pIC50: 6.06
- structure.as.smiles: "COC(=O)c1ccc(C(=O)N(C)C2CCN(c3nnc(-c4ccnn4C)c4ccccc34)CC2)cc1"
  qualifying.sign: "<"
  pIC50: 5.00
- structure.as.smiles: "CN(C(=O)c1ccc(Oc2ccccc2)cc1)C1CCN(c2nnc(-c3ccnn3C)c3ccccc23)CC1"
  qualifying.sign: "="
  pIC50: 6.57
- structure.as.smiles: "CN(C(=O)c1ccc([N+](=O)[O-])cc1)C1CCN(c2nnc(-c3ccnn3C)c3ccccc23)CC1"
  qualifying.sign: "="
  pIC50: 6.63
- structure.as.smiles: "CN(C(=O)c1ccc(OCc2ccccc2)cc1)C1CCN(c2nnc(-c3ccnn3C)c3ccccc23)CC1"
  qualifying.sign: "="
  pIC50: 5.74
- structure.as.smiles: "CN(C(=O)c1ccc(CC=O)cc1)C1CCN(c2nnc(-c3ccnn3C)c3ccccc23)CC1"
  qualifying.sign: "<"
  pIC50: 5.00
